Recorded pest or weed control at 50 g/ha values for a group of molecules are listed next.
# Tested on: indian jointvetch
# Protocol Description: Herbicidal activity test against upland field weeds (foliar treatment test)
# Type: in vivo
# Recorded Conditions: 50 g ai/ha, scale 0-100
Readout Label: pest or weed control at 50 g/ha (%)

1. Cc1nc(COCc2nc(C(F)(F)F)ccc2C(=S)Nc2nnnn2C)nn1C [Compound No. 2-117] ... 40
2. Cn1nnnc1COc1nc(C(F)(F)F)ccc1C(=O)Nc1nnnn1C(F)F [Compound No. 1-4] ... 20
3. Cn1cnc(COCc2nc(C(F)(F)C(F)(F)F)ccc2C(=O)Nc2nnnn2C)n1 [Compound No. 2-83] ... 70
4. Cn1nnnc1NC(=O)c1ccc(C(F)(F)F)nc1COCc1nc(C(F)(F)F)n(C)n1 [Compound No. 2-118] ... 50
5. Cn1nnc(COCc2nc(C(F)(F)C(F)(F)F)ccc2C(=O)Nc2nnnn2C)n1 [Compound No. 2-81] ... 80
6. Cn1nnnc1NC(=O)c1ccc(C(F)(F)F)nc1COc1nnnn1C [Compound No. 1-115] ... 40
7. CCCn1nnnc1NC(=O)c1ccc(C(F)(F)F)nc1COCc1nc(C(F)(F)F)n(C)n1 [Compound No. 2-120] ... 60
8. Cn1nnc(COCc2nc(C(F)(F)F)ccc2C(=O)Nc2nnnn2C)n1 [Compound No. 2-59] ... 98

---

# Tested on: soybean
# Protocol Description: Phytotoxicity test for upland field crops (foliar treatment test)
# Type: in vivo
# Design: key: 0 (no harm); 9 (complete withered)
# Recorded Conditions: 50 g ai/ha, Soybean (14 days after treatment)
Readout Label: Foliar treatment phytotoxicity, Soybean

1) CON(Cc1nnn(C)n1)c1nc(C(F)(F)F)ccc1C(=O)Nc1nnnn1C ... 0
2) Cn1nnc(COCc2nc(C(F)(F)Cl)ccc2C(=O)Nc2nnnn2C)n1 ... 5
3) Cn1nnc(COc2nc(C(F)(F)F)ccc2C(=O)Nc2nnnn2C)n1 ... 6
4) Cn1nnnc1COc1nc(C(F)(F)F)ccc1C(=O)Nc1nnnn1C ... 0
5) Cc1nc(COCc2nc(C(F)(F)F)ccc2C(=S)Nc2nnnn2C)nn1C ... 5
6) Cn1nc(COCc2nc(C(F)(F)F)ccc2C(=O)Nc2nnnn2C)nc1C#N ... 6
7) Cn1nnc(COCc2nc(C(F)(F)F)ccc2C(=O)N(c2nnnn2C)S(C)(=O)=O)n1 ... 6
8) Cn1ncnc1COc1nc(C(F)(F)F)ccc1C(=O)Nc1nnnn1C ... 7.5

---

# Test system: soybean
# Protocol Description: Phytotoxicity test for upland field crops (foliar treatment test)
# Format: in vivo
# Recorded Conditions: 50 g ai/ha, Soybean (7 days after treatment)
Recorded Foliar treatment phytotoxicity, Soybean values for a group of compounds are listed next.
Readout Label: Foliar treatment phytotoxicity, Soybean

1) Cn1nnc(COCc2nc(C(F)(F)F)ccc2C(=O)N(C(=O)c2ccccc2)c2nnnn2C)n1 ... 5
2) Cn1nnnc1NC(=O)c1ccc(C(F)(F)F)nc1OCc1nnnn1C(F)F ... 5
3) Cn1nnc(COCc2nc(C(F)F)ccc2C(=O)Nc2nnnn2C)n1 ... 6
4) Cn1nnnc1COCc1nc(C(F)(F)F)ccc1C(=O)Nc1nnnn1C ... 6

---

Recorded Foliar treatment phytotoxicity, Wheat values for a group of molecules are listed next.
# Test system: wheat
# Protocol Description: Phytotoxicity test for upland field crops (foliar treatment test)
# Type: in vivo
# Set-up: key: 0 (no harm); 9 (complete withered)
# Recorded Conditions: 100 g ai/ha, Wheat (7 days after treatment)
Readout Label: Foliar treatment phytotoxicity, Wheat

1) C=CCn1nnnc1NC(=O)c1ccc(C(F)(F)F)nc1COCc1ncn(C)n1 ... 0
2) Cn1nnc(CSCc2nc(C(F)(F)F)ccc2C(=S)Nc2nnnn2C)n1 ... 4
3) CCn1nnnc1NC(=O)c1ccc(C(F)(F)F)nc1COCc1nc(C(F)(F)F)n(C)n1 ... 0
4) C=C(C)c1nc(COCc2nc(C(F)(F)F)ccc2C(=O)Nc2nnnn2C)nn1C ... 0
5) Cn1nnnc1COCc1nc(C(F)(F)F)ccc1C(=O)Nc1nnnn1C ... 0
6) Cn1ncnc1COCc1nc(C(F)(F)F)ccc1C(=O)Nc1nnnn1C ... 3
7) Cn1nnnc1NC(=O)c1ccc(C(F)(F)F)nc1COCc1nc(C(F)F)n(C)n1 ... 0
8) Cn1nnc(COCc2nc(C(F)(F)F)ccc2C(=O)Nc2nnnn2C)n1 ... 0
9) Cn1nnc(CSCc2nc(C(F)(F)F)ccc2C(=O)Nc2nnnn2C)n1 ... 0
10) COC(=O)OC(C)N(C(=O)c1ccc(C(F)(F)F)nc1COCc1ncn(C)n1)c1nnnn1C (stereo not shown) ... 0
11) Cn1nnnc1NC(=O)c1ccc(C(F)(F)F)nc1OCc1nnnn1C(F)F ... 1
12) Cn1nnnc1NC(=O)c1ccc(C(F)(F)F)nc1COCc1nc(C(F)(F)F)n(C)n1 ... 0
13) CN(Cc1nnn(C)n1)c1nc(C(F)(F)F)ccc1C(=O)Nc1nnnn1C ... 1
14) CCCn1nnnc1NC(=O)c1ccc(C(F)(F)F)nc1COCc1nc(C(F)(F)F)n(C)n1 ... 0
15) COC(=O)OC(C)N(C(=O)c1ccc(C(F)(F)F)nc1CSCc1nnn(C)n1)c1nnnn1C (stereo not shown) ... 0
16) Cn1nnc(COCc2nc(C(F)(F)F)ccc2C(=S)Nc2nnnn2C)n1 ... 0
